experiment: Cytotoxicity counter screen in Vero E6 cells (Cell Titer-Glo); details: African green monkey
PROPERTY MEASURED: CC50 at 72 h

{"columns": ["COMPOUND", "PROPERTY MEASURED", "REPORTED RESULT"],
 "data": [
  ["CCC(CC)COC(=O)[C@H](C)N[P@](=O)(OC[C@H]1O[C@@](C#N)(c2ccc3c(N)ncnn23)[C@H](O)[C@@H]1O)Oc1ccccc1 [Remdesivir, reference compound]", "CC50 at 72 h", "> 30 µM"]
]}

Shifting focus to the compound that follows.
// CC50 at 72 h value for CCN(CC)CCCC(C)Nc1ccnc2cc(Cl)ccc12 (centres unmarked) [Chloroquine, reference compound] : > 30 µM

* * *

test system: 229E virus; experiment: 229E coronavirus infection assay in Huh7.5 cells; assay type: cell-based; conditions: 48 h; Huh7.5 cells, fixed 2 days after infection; read-out: 229E IC50
PROPERTY MEASURED: pIC50
pIC50 field: float, defined as -log10 of concentration (mol/L).

// pIC50 value for `CC(=O)Nc1ccc(Nc2nc(Nc3ccc(Cl)cc3)nc(N3CCOCC3)n2)cc1` : 6.86

* * *

test system: SARS-CoV-2 (WA1); assay: microbe, parasite or virus in culture; type: cell-based; settings: Severe acute respiratory syndrome coronavirus 2, Vero C1008, 72 h, read-out: Antiviral IC50
PROPERTY MEASURED: pIC50
pIC50 field: float, defined as -log10 of concentration (mol/L).

// pIC50 value for CCC(CC)COC(=O)[C@H](C)N[P@](=O)(OC[C@H]1O[C@@](C#N)(c2ccc3c(N)ncnn23)[C@H](O)[C@@H]1O)Oc1ccccc1 [Remdesivir, reference compound] : 4.97

* * *

experiment: Cytotoxicity counter screen in Vero E6 cells (Cell Titer-Glo); settings: African green monkey, Vero E6 cells
PROPERTY MEASURED: CC50 at 72 h

// CC50 at 72 h value for CCN(CCO)CCCC(C)Nc1ccnc2cc(Cl)ccc12 (stereo not shown) [Hydroxychloroquine, reference compound] : > 30 µM

* * *

system: SARS-CoV-2 (WA1); test: microbe, parasite or virus in culture; type: cell-based; conditions: VIRADEM compounds, SARS-CoV-2(WA1) CPE assay, Round 2, concentration range 1000-0.05 nM, Vero E6; read-out: IC50
substances and their reported IC50

{"columns": ["SUBSTANCE", "IC50"],
 "data": [
  ["N-(3-Fluorophenyl)-6-pyrrolidin-1-yl-1,3,5]triazine-2,4-diamine hydrochloride [VIRADEM-12180]", "> 1000 nM"]
]}

Shifting focus to the substance that follows.
// IC50 value for N-(3-Chlorophenyl)-N^1-phenyl)-6-pyrrolidin-1-yl-[1,3,5]triazine-2,4-diamine hydrochloride [VIRADEM-12312] : > 1000 nM

* * *

system: VeroE6 cells; test: Cytotoxicity counter screen in Vero E6 cells (Cell Titer-Glo); conditions: read-out: Cytotoxicity CC50; reference compounds, Vero E6 cells, 72 hours
Where a SMILES comes first, the peptide text is derived from it.
PROPERTY MEASURED: CC50

// CC50 value for CC(C)C[C@H](NC(=O)OCc1ccccc1)C(=O)N[C@@H](CC(C)C)C(=O)N[C@@H](Cc1ccc(O)cc1)C(=O)CF [Calpain Inhibitor IV, reference compound] (HELM PEPTIDE1{[O=C(OCc1ccccc1)[*:2]].L.L.Y.[FC[*:1]]}$$$$V2.0) : > 7.17 µM
